- target-under-test: Epidermal growth factor receptor (Homo sapiens) (UniProt P00533)
- Sequence (P00533 whole entry, looked up): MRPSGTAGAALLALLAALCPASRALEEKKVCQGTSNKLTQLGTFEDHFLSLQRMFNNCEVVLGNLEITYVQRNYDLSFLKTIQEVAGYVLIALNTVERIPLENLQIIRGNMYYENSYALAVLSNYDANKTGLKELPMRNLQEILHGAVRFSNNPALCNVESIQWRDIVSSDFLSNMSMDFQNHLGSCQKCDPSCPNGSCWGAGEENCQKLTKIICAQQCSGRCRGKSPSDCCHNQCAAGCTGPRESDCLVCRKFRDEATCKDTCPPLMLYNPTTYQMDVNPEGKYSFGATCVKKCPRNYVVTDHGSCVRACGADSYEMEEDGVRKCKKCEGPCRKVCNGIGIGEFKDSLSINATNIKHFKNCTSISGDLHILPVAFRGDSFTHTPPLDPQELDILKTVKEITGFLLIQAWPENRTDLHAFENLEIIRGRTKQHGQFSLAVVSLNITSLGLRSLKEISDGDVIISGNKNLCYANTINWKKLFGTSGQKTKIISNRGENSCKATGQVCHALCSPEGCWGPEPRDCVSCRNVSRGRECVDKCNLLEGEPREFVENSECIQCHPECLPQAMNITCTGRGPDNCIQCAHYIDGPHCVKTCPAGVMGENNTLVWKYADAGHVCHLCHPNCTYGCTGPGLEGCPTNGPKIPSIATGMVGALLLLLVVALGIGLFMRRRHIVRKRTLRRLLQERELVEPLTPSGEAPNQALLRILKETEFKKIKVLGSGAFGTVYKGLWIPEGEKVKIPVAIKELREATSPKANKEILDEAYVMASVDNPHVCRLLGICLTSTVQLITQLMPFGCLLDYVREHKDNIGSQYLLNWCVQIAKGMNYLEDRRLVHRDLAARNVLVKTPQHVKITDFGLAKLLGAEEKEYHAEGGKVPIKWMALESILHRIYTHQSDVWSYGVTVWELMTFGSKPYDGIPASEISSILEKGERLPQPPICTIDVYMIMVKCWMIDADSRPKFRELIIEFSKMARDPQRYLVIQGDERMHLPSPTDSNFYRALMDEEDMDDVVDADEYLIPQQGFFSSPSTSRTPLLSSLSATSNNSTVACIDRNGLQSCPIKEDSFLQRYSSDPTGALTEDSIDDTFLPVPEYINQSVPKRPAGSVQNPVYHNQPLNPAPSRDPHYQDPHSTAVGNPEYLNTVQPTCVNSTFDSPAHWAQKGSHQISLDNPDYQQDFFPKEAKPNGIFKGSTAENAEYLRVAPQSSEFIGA
- test: EGFR binders on small-molecule microarrays, primary screen, biochemical, small-molecule microarray, 635 nm fluorescence (AID 1104);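 note: score merges 667 nm emission intensity with spot signal to noise over triplicate slides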
- run-conditions: EGFR binding, higher = more signal
Label Y when composite z-score is at or above -0.6; otherwise label N.

Identify whether the reported composite z-score of the following compound is -0.6 or greater: `O=C(NC1CC1)[C@@H]1c2ccccc2C(=O)N(C2CCCCC2)[C@H]1c1ccc(CO)cc1`
Y

Try this compound too: `COC(=O)C(CC#Cc1ccc2c(c1)[C@]1(C(=O)N2)[C@H](c2ccc(OCCO)cc2)N2[C@H](c3ccccc3)[C@H](c3ccccc3)OC(=O)[C@H]2[C@@H]1C(N)=O)C(=O)OC`
N

One more compound: `Cc1ccc(S(=O)(=O)N2[C@@H](c3ccccc3)C(C(=O)O)=CC[C@H]2c2ccc(F)cc2)cc1`
N

And CC1CC/C=C\[C@H]2OC34C=CCN(C(C)C)C(=O)[C@H]3N(C(C)CO)C(=O)[C@@H]4C2C(=O)O1 (stereo partly specified) ?
Y

Queued: O=C1C2C=CC(C(O)C3CCCCC3)N(Nc3ccccc3F)C2C(=O)N1c1ccccc1 (stereo unspecified)
Y

One more compound: `[N-]=[N+]=NCc1ccccc1C[C@@]1(C(=O)NCCN2CCOCC2)N=C(c2ccc(OCCCO)cc2)O[C@@H]1c1ccccc1`
N

Try the compound `CCOC(=O)C[C@H]1[C@H](OC(=O)Cc2ccc3c(c2)OCO3)[C@@H](NC(=O)CC(C)C)c2cc(OCCCO)ccc2N1C(=O)c1ccc2ccccc2n1`
Y

What do we get for `COCCCNC(=O)[C@@]1(Cc2ccccc2I)c2ccccc2C(=O)N(Cc2ccccc2OC)[C@H]1c1ccc(CO)cc1` ?
N

Ok, now `COC(=O)C(CC#Cc1ccc2c(c1)[C@]1(C(=O)N2)[C@H](c2ccccc2OCCO)N2[C@H](c3ccccc3)[C@H](c3ccccc3)OC(=O)[C@H]2[C@@H]1C(=O)N1CCN(c2ncccn2)CC1)C(=O)OC`
Y

Next: `[N-]=[N+]=NCc1ccccc1[C@H]1OC(c2ccc(OCCCO)cc2)=N[C@@]1(Cc1ccccc1N=[N+]=[N-])C(=O)O`
Y

One more compound: `C[C@]1(C(=O)O)c2ccccc2C(=O)N(Cc2cc(C(F)(F)F)cc(C(F)(F)F)c2)[C@H]1c1ccc(CO)cc1`
N

Also COc1ccc(NN2C(C(O)c3ccc(F)cc3)C=CC3C(=O)N(C4CCCCC4)C(=O)C32)cc1 (stereo unspecified) , if possible.
Y

Also CCCCCCCCCCC(O)C1C=CC2C(=O)N(C)C(=O)C2N1Nc1ccccc1 (stereo unspecified) ?
N

Also, `COCCOC(=O)N1C(=O)[C@@]2(c3cc(C#CC4(O)CCCCCC4)ccc31)[C@H](C(N)=O)[C@H]1C(=O)O[C@H](c3ccccc3)[C@H](c3ccccc3)N1[C@@H]2c1ccc(OCCO)cc1` please.
Y

Repeat for the following compound: `CCCC[C@@H](O)C1=C(C)Cn2c(=O)n(-c3ccccc3)c(=O)n2[C@H]1CO`
Y

And what about the compound CN1C(=O)C2C=CC(C(O)c3ccc(I)cc3)N(N(c3ccccc3)c3ccccc3)C2C1=O (stereo unspecified) ?
N

----------
- test: small-molecule microarray binders of probe aNog, primary screen, biochemical, biotinylated probe, 635/667 nm fluorescence (AID 1115);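 note: probe is biotinylated aNog protein used at 0.15 µg/mL for 1 h at 4 C; z-score combines 667 nm fluorescence of each spot with its signal to noise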
- run-conditions: higher = more signal
Provide the recorded composite z-score for the entries that follow.

State the recorded composite z-score for this entry: `C=C(C(=O)CC[C@H](OC(=O)c1ccccc1-c1ccccc1C(=O)O)c1ccc(OCCO)cc1)C(C)C`
1.14

Same for `COc1ccc([Si](C)(C)[C@H]2[C@H](CCO)O[C@@]3(C(=O)N(Cc4ccccc4)c4ccc(NC(=O)[C@H](C)O)cc43)[C@@H]2C)cc1`
0.514

How about C=CCC(OC(C)=O)[C@@H]1[C@@H](N(Cc2ccc(-c3ccccc3)cc2)C(=O)Cc2ccc(OC)cc2)c2cc(OCCCO)ccc2N1C(=O)c1ccc2ccccc2c1 (some centres undefined) ?
-0.57

Now give it for CCCCCN1CC=CC23O[C@@H]4/C=C\CCCOC(=O)C4[C@H]2C(=O)N(CCO)[C@@H]3C1=O (some centres undefined) too.
-0.191

----------
- test: PSAC antagonists in infected red cells, primary screen, cell-based, P. falciparum Indochina, OD700, 1 h (AID 1154)
- run-conditions: P. falciparum Indochina infected RBC osmotic lysis, higher = more signal, called active from +8 up or from −8 down
Consider the following molecules; for each one, report its z-score.
Write the value as a bare number.

Entry `COCCOC(=O)N1C(=O)[C@@]2(c3cc(C#CC4(O)CCCCCC4)ccc31)[C@H](C(N)=O)[C@H]1C(=O)O[C@H](c3ccccc3)[C@H](c3ccccc3)N1[C@@H]2c1ccc(OCCO)cc1` has what z-score?
3.59

O=C1C2C=CC(C(O)C3CCCCC3)N(Nc3ccccc3F)C2C(=O)N1c1ccccc1 (stereo not drawn) ?
1.11

Now consider `COc1ccc(C(=O)Nc2ccc(CN3C(=O)[C@]4(O[C@H](CC(=O)N(CCO)Cc5ccccc5)[C@@H]([Si](C)(C)c5ccc(OC)cc5)[C@@H]4C)c4ccccc43)cc2)cc1` and answer again.
4.94

Would you mind doing `C[C@]1(C(=O)NC2CC2)c2ccccc2C(=O)N(Cc2cc(F)cc(C(F)(F)F)c2)[C@H]1c1ccc(CO)cc1` as well?
3.02

Moving on to `COc1ccc(CCNC(=O)[C@@H]2c3ccccc3C(=O)N(C(C)C)[C@H]2c2ccc(CO)cc2)cc1`
3.24

Now consider `C=C(COC)/C(=C/C[C@@H](OC(C)=O)c1cccc(OCCO)c1)c1cnc2ccccc2c1` and answer again.
22.7

Now the molecule `COc1ccc([Si](C)(C)[C@H]2[C@H](CC(=O)N3CCC[C@H]3CO)O[C@@]3(C(=O)N(Cc4cccc(N5CCCCC5=O)c4)c4ccccc43)[C@@H]2C)cc1`
4.11

Again, but for `CC[C@@H](O[Si](C#C[Si](C(C)C)(C(C)C)C(C)C)(C(C)C)C(C)C)c1cn(Cc2cccc(Cl)c2)nn1`
-0.0842

Next molecule up: `COC(=O)[C@@]1(Cc2ccccc2)[C@H]2c3cc(C(=O)N(C)C)n(Cc4nc5ccccc5[nH]4)c3C[C@H]2CN1C(=O)c1ccccc1`
4.51

Also check `COCCCNC(=O)[C@@]1(Cc2ccccc2I)c2ccccc2C(=O)N(Cc2ccccc2OC)[C@H]1c1ccc(CO)cc1`
10.1

Continue with `COCCOC(=O)N1C(=O)[C@@]2(c3ccccc31)[C@H](C(=O)Nc1nc3ccccc3s1)[C@H]1C(=O)O[C@H](c3ccccc3)[C@H](c3ccccc3)N1[C@@H]2c1ccccc1OCCO`
4.98

And then `O=C1C[C@@](C(=O)NCC(F)(F)F)(c2ccc([N+](=O)[O-])cc2)[C@@H](c2ccc(CO)cc2I)N1CC12CC3CC(CC(C3)C1)C2` , what is it?
22.4

Now the molecule `COCCOC(=O)N1C(=O)[C@@]2(c3cc(C#CC4=CCCCC4)ccc31)[C@H](c1ccc(O)cc1)N1[C@H](c3ccccc3)[C@H](c3ccccc3)OC(=O)[C@H]1[C@@H]2C(=O)N1CCc2cc(OC)c(OC)cc2C1`
0.751

Now give it for CN1C(=O)C2C=CC(C(O)c3ccc([N+](=O)[O-])cc3)N(Nc3ccccc3)C2C1=O (stereo not drawn) too.
1.98

Cool, now `CC(=O)NCCCC[C@@H]1NC(=O)[C@H]2C[C@@H](C(=O)NCCCCCN)[C@@H](c3ccc(O)cc3)N2C1=O`
0.537

Would you mind doing `CCCC[C@@H](O)C1=C(C)Cn2c(=O)n(-c3ccccc3)c(=O)n2[C@H]1CO` as well?
-0.262

Let us now turn to `COCCOC(=O)N1C(=O)[C@@]2(c3cc(C#CCNC(N)=O)ccc31)[C@H](C(=O)N1CCN(c3ncccn3)CC1)[C@H]1C(=O)O[C@H](c3ccccc3)[C@H](c3ccccc3)N1[C@@H]2c1ccc(O)cc1`
1.35

Same for `C=C(CCCC)C(=O)CC[C@@H](OC(C)=O)c1ccc(OCCO)cc1`
7.67

----------
- test: binders of probe aFGF2 on microarray, primary screen, stem cell growth factor project, biochemical, small-molecule microarray, fluorescence 635/667 (AID 1067);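 note: measures binding of biotinylated aFGF2 protein to printed compounds on slides; z-score merges feature fluorescence and signal-to-noise across triplicate slides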
- run-conditions: higher = more signal
Please provide measured composite z-score for the entries that follow.
Response field accepts a number only; no unit should be typed.

Look up composite z-score: `COC(=O)[C@@]1(Cc2ccccc2)[C@H]2c3cc(C(=O)N(C)C)n(Cc4ccc(Cl)c(C(F)(F)F)c4)c3C[C@H]2CN1C(=O)c1ccccc1`
0.372

Let us now turn to `CCCCC(=C=CC[C@H](O)c1cccc(OCCO)c1)C[C@H](O)c1cc(Cl)cc(Cl)c1O`
-0.0376

Try this compound next: `COc1ccc([Si](C)(C)[C@H]2[C@H](CC(=O)N(CCO)Cc3ccccc3)O[C@@]3(C(=O)N(c4ccccc4)c4ccccc43)[C@@H]2C)cc1`
-0.0261

How about this compound: `C=CCNC(=O)[C@H]1[C@@H]2C(=O)O[C@@H](c3ccccc3)[C@@H](c3ccccc3)N2[C@@H](c2ccc(O)cc2)[C@]12C(=O)Nc1ccccc12`
-0.0628

Now consider `O=C/C=C/c1ccc(-c2ccccc2)cc1` and answer again.
-0.0785

// same read-out, input: CC1C2C(CCCO)=CC(C3C(=O)N(C(N)=O)C(=O)C23)N1Cc1cccc(OC(F)(F)F)c1 (stereo unspecified)
-0.0558
